- Species: Rattus norvegicus
- experiment notes: DrugMatrix - Regimen: Daily Repeat
- Format: toxicity, organism-based, Sprague-Dawley
- Set-up: regimen Daily Repeat, gender Male, age 6-8 weeks
- condition parameters: in vivo, po, 10 mg/kg, 120 h, tissue Blood, route oral GAVAGE, dose level Low, time 5 day, […]
# Lookup of reported MEAN CORPUSCULAR HEMOGLOBIN CONCENTRATION keyed by entry
Write the answer as a number in G/DL, unit excluded.

A selection of reference data follows.
COc1ccc2cc([C@H](C)C(=O)O)ccc2c1 :: 38.8
CCOC(=O)C1=C(C)NC(C)=C(C(=O)OC)C1c1cccc([N+](=O)[O-])c1 (centres undefined) :: 38.87

The measured MEAN CORPUSCULAR HEMOGLOBIN CONCENTRATION associated with CC(C)CC(N(C)C)C1(c2ccc(Cl)cc2)CCC1 (centres undefined) reads 39.93

Short answer for COCCOC(=O)C1=C(C)NC(C)=C(C(=O)OC(C)C)C1c1cccc([N+](=O)[O-])c1 (centres undefined) : MEAN CORPUSCULAR HEMOGLOBIN CONCENTRATION was 38.37

###

- Species on record: Rattus norvegicus
- experiment notes: DrugMatrix - Regimen: Daily Repeat
- Assay type: toxicity, organism-based, Sprague-Dawley
- Set-up: regimen Daily Repeat, gender Male, age 6-8 weeks
- condition parameters: in vivo, po, 0 mg/kg, 72 h, tissue Plasma, route oral GAVAGE, dose level Control, time 3 day, vehicle 100 % WATER
Could you mark each record met if its CREATINE PHOSPHOKINASE falls strictly under 400 u/L, and not met if it equals or exceeds it?

Nc1ccn([C@@H]2CS[C@H](CO)O2)c(=O)n1 [LAMIVUDINE] :: not met
ClC(Cl)Cl [CHLOROFORM] :: met
CC(C)C[C@H](NC(=O)[C@@H](O)[C@H](N)Cc1ccccc1)C(=O)O [UBENIMEX] :: met

Just wondering, is CREATINE PHOSPHOKINASE of C[C@@H]1C[C@@H]([C@H](O)CC2CC(=O)NC(=O)C2)C(=O)[C@@H](C)C1 [CYCLOHEXIMIDE] below 400 u/L? not met

Confirm or reject: CREATINE PHOSPHOKINASE of C[N+](C)(C)CCO.[Cl-] [CHOLINE CHLORIDE] lies strictly below 400 u/L not met

State whether 400 u/L exceeds CREATINE PHOSPHOKINASE recorded for CC(C)(C)c1ccc(C(=O)CCCN2CCC(OC(c3ccccc3)c3ccccc3)CC2)cc1 [EBASTINE] . met

For this compound, is CREATINE PHOSPHOKINASE lower than 400 u/L? Cc1ncc([N+](=O)[O-])n1CCO [METRONIDAZOLE] met

Lab note: confirm whether the reported CREATINE PHOSPHOKINASE for this compound is below 400 u/L, equality not counting. compound: CC(C)NCC(O)COc1cccc2ccccc12 (stereo not given) [PROPRANOLOL] not met

Answer whether the compound COC(=O)C1=C(C)NC(C)=C(C(=O)OCC(C)C)C1c1ccccc1[N+](=O)[O-] (stereo not given) [NISOLDIPINE] has CREATINE PHOSPHOKINASE strictly less than 400 u/L met

###

- Species: Rattus norvegicus
- experiment notes: DrugMatrix - Regimen: Daily Repeat
- Format: toxicity, organism-based, Sprague-Dawley
- Parameters: regimen Daily Repeat, gender Male, age 6-8 weeks
- condition parameters: in vivo, po, 0 mg/kg, 72 h, tissue Plasma, route oral GAVAGE, dose level Control, time 3 day, vehicle .5 % CMC
Field 'label' (enum: satisfied / not satisfied). Set to satisfied when CARBON DIOXIDE is strictly under 30 mmol/L; else not satisfied.

Worked examples follow.
CNC(=C[N+](=O)[O-])NCCSCc1ccc(CN(C)C)o1 [RANITIDINE] :: not satisfied
O=[N+]([O-])c1ccccc1 [NITROBENZENE] :: satisfied
CO[C@H]1/C=C/O[C@@]2(C)Oc3c(C)c(O)c4c(c3C2=O)C2=NC3(CCN(CC(C)C)CC3)NC2=C(NC(=O)/C(C)=C\C=C\[C@H](C)[C@H](O)[C@@H](C)[C@@H](O)[C@@H](C)[C@H](OC(C)=O)[C@@H]1C)C4=O [RIFABUTIN] :: not satisfied
C#C[C@]1(O)CC[C@H]2[C@@H]3CCc4cc(OC)ccc4[C@H]3CC[C@@]21C [MESTRANOL] :: not satisfied

Then there is this molecule:
Record C[C@](O)(CS(=O)(=O)c1ccc(F)cc1)C(=O)Nc1ccc(C#N)c(C(F)(F)F)c1 [(R)-BICALUTAMIDE] : is its CARBON DIOXIDE strictly below 30 mmol/L? satisfied
